# assay_system: T1, human Ang-1 (human, UniProt Q15389)
# T1 chain: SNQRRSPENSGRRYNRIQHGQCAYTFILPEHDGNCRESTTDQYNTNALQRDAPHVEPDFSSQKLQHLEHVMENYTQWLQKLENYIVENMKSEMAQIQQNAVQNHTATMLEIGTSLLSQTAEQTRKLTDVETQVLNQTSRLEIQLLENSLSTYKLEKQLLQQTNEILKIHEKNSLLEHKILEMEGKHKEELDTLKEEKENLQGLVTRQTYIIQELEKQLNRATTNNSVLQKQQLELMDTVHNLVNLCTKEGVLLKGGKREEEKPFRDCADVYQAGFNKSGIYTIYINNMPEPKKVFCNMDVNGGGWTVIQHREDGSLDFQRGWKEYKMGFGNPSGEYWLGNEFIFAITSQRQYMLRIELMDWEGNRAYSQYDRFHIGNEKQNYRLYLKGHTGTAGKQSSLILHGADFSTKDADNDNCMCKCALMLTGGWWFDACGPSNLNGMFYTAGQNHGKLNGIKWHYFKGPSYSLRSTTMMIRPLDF
# assay_name: competition ELISA vs Tie-2
Where no end group is shown, it is not given here. [ ]: non-standard residue; d: D form. Fc = immunoglobulin Fc domain fused to the peptide (peptibody)

binder | IC50
MGAQQEECEWDPWTCEHMLEGGGGG[Fc] (not fully specified (bridges); printed as MGAQQEECEWDPWTCEHMLEGGGGG-Fc; cysteine pairing not given here; also: Fc fusion domain at position 26) [Con4 (N)] | > 1 µM
MGAQKRPCEEIFGGCTYQLEGGGGG[Fc] (not fully specified (bridges); printed as MGAQ-KRPCEEIFGGCTYQLEGGGGG-Fc; cysteine pairing not given here; also: Fc fusion domain at position 26) [Con1 (N)] | > 1 µM
MGAQKRPCEEMWGGCNYDLEGGGGGX (not fully specified (C-terminus, bridges); printed as MGAQ-KRPCEEMWGGCNYDLEGGGGG-Fc; cysteine pairing not given here) [TN8-8 (N)] | > 1 µM
